Assay: qHTS assay to identify small molecule agonists of the estrogen receptor beta (ER-beta) signaling pathway - cell viability counter screen (AID 1259380); further: nearly all actives have a fitted effect of over 30% in size
Details: ER-beta-bla HEK293T viability, CellTiter-Glo luminescence, 16 h; series mostly up to 92.4 µM
Records with an inconclusive call do not appear. Calls of active or inactive are those of the source. The call rests on the fitted dose curve; in most records, active means well fitted cell-killing curve with a large enough effect in the repeat runs; inconclusive means weak or mixed curves, or effect the other way; inactive means flat fitted curve, though single readings scatter.
Answer with one of the outcomes given here: active, inactive

Q: # lookup: test call for `CC(C)=CC=O`
A: inactive

Q: # lookup: test call for `CCCOC(=O)c1ccc(C(=O)OCCC)nc1`
A: inactive

Q: # lookup: test call for `CCCCCC=CCC=CCCCCCCCC(=O)OCC`
A: active

Q: # lookup: test call for `C1COCO1`
A: inactive

Q: # lookup: test call for CC(C)OCC1CO1 (stereo not drawn)
A: inactive

Continuing:
Q: # lookup: test call for `CCCCCCCCCCCCCCC[C@H](O)[C@@H](N)CO`
A: inactive

---

Assay: qHTS assay to identify small molecule antagonists of the sonic hedgehog signaling (Shh) pathway (AID 1259369); further: nearly all actives have a fitted effect of over 45% in size
Settings: NIH/3T3 Gli1-Luc reporter, Shh antagonist, luminescence 24 h; series mostly up to 92.4 µM
Results filed as inconclusive are left out. Active and inactive are the calls of the source. The call rests on the fitted dose curve.
assay.readout: outcome

Q: Find the measured outcome of `O=[N+]([O-])c1cccc(S(=O)(=O)NCCNS(=O)(=O)c2cccc([N+](=O)[O-])c2)c1` and report it.
A: inactive

Q: Find the measured outcome of `CCOCCn1c(C2CCN(CCc3ccc(C(C)(C)C(=O)O)cc3)CC2)nc2ccccc21` and report it.
A: inactive

Q: Find the measured outcome of `O=S(=O)(c1ccccc1)c1ccc(Cl)cc1` and report it.
A: inactive

---

Assay: qHTS assay to identify small molecule agonists of the estrogen receptor beta (ER-beta) signaling pathway - cell viability counter screen (AID 1259380); further: nearly all actives have a fitted effect of over 30% in size
Conditions: ER-beta-bla HEK293T viability, CellTiter-Glo luminescence, 16 h; series mostly up to 92.4 µM
Description: National Center for Advancing Translational Sciences [NCATS] NIH Chemical Genomics Center [NCGC] U.S. Environmental Protection Agency [EPA] National Institutes of Environmental Health Sciences [NIEHS] National Toxicology Program [NTP] U.S. Food and Drug Administration [FDA] Estrogen receptor (ER), a nuclear hormone receptor, plays an important role in development, metabolic homeostasis and reproduction. […]
Inconclusive results are not listed. Activity calls are given as the source filed them. The call rests on the fitted dose curve; in most records, active means well fitted cell-killing curve with a large enough effect in the repeat runs; inconclusive means weak or mixed curves, or effect the other way; inactive means flat fitted curve, though single readings scatter.
Answer with one of the outcomes given here: Yes (active), No (inactive)

As a guide, the following entries are already answered.
Q: # lookup: test call for CC1=CC(O)CC(C)(C)C1 (stereo unspecified)
A: No

Q: # lookup: test call for `Cc1ccc(S(=O)(=O)NC2CCCCC2)cc1`
A: No

Q: # lookup: test call for `CCOC(=O)c1ccccc1OC`
A: No

Q: # lookup: test call for `NC(=O)N(O)[C@@H]1C=C[C@H](Oc2cccc(Oc3ccc(F)cc3)c2)C1`
A: No

Q: # lookup: test call for `OC(CCCN1CCCCC1)(c1ccccc1)c1ccccc1`
A: No

Continuing:
Q: # lookup: test call for `O=C(c1ccc(O)cc1)c1ccc(Cl)cc1`
A: No

Q: # lookup: test call for `CC(C)C(=O)O`
A: No

Q: # lookup: test call for C/C=C(\C)C(=O)OCCC(C)CCC=C(C)C (stereo unspecified)
A: No

Q: # lookup: test call for `N#C[C@@H]1C[C@@H]2C[C@@H]2N1C(=O)[C@@H](N)C12CC3CC(CC(O)(C3)C1)C2`
A: No

---

Experiment: qHTS assay to identify small molecule antagonists of the sonic hedgehog signaling (Shh) pathway (AID 1259369); further: nearly all actives have a fitted effect of over 45% in size
Settings: NIH/3T3 Gli1-Luc reporter, Shh antagonist, luminescence 24 h; series mostly up to 92.4 µM
Results filed as inconclusive are left out. Activity calls are given as the source filed them. The call rests on the fitted dose curve.
Answer with one of the outcomes given here: label 1 (active), label 0 (inactive)

Q: # lookup: test call for `Nc1ccc(Cl)cc1[N+](=O)[O-]`
A: label 0

Continuing:
Q: # lookup: test call for `CCCCCCCCCCCC[N+](C)(C)CCCS(=O)(=O)[O-]`
A: label 0

Q: # lookup: test call for `CCCc1c(OCCCOc2ccc(OCC(=O)O)cc2)ccc(C(C)=O)c1O`
A: label 0

Q: # lookup: test call for `Nc1ccc(S(=O)(=O)O)cc1`
A: label 0

Q: # lookup: test call for `CNC(=O)N(c1ccccc1)c1ccccc1`
A: label 1

Q: # lookup: test call for CC(=O)CC(c1ccc([N+](=O)[O-])cc1)c1c(O)c2ccccc2oc1=O (configuration not stated)
A: label 0

---

Test: qHTS assay to test for compound auto fluorescence at 535 nm (green) in HEK293 cells (AID 720680); further: on the % scale 0 is the no-effect control and ±100 the full control effect
Settings: green autofluorescence 485/535 nm; series mostly up to 91.3 µM
The source made the active and inactive calls. The call rests on the fitted dose curve; in most records, active means well fitted curve in the direction sought with a large enough effect in the repeat runs; inconclusive means weak or mixed curves; inactive means flat fitted curve, though single readings scatter.
assay.readout: fluorescence, % of fluorescein

Use these answered entries as a reference point.
Q: Find the measured fluorescence, % of fluorescein of `Nc1ccc(C(=O)OCCCOC(=O)c2ccc(N)cc2)cc1` and report it.
A: inactive

Q: Find the measured fluorescence, % of fluorescein of CC1=CC(=O)CC(C)(C)C1(O)/C=C/C(C)=C\C(=O)O (centres undefined) and report it.
A: inactive

Q: Find the measured fluorescence, % of fluorescein of CC(=O)CC(c1ccc([N+](=O)[O-])cc1)c1c(O)c2ccccc2oc1=O (centres undefined) and report it.
A: 0.0049% [at 18.6 µM] (inactive)

Q: Find the measured fluorescence, % of fluorescein of `CCCCOC(=O)CCS` and report it.
A: inactive

Q: Find the measured fluorescence, % of fluorescein of Cc1ccccc1N1C(=O)c2cc(S(N)(=O)=O)c(Cl)cc2NC1C (centres undefined) and report it.
A: inactive

Q: Find the measured fluorescence, % of fluorescein of `Oc1cc(O)c(Cl)cc1Cl` and report it.
A: inactive

Note: attention shifts to another entry.
Q: Find the measured fluorescence, % of fluorescein of `O=C(C(=O)c1ccccc1)c1ccccc1` and report it.
A: inactive

---

Target: Luciferin 4-monooxygenase (Photinus pyralis) (UniProt P08659)
Sequence (P08659 whole entry, looked up): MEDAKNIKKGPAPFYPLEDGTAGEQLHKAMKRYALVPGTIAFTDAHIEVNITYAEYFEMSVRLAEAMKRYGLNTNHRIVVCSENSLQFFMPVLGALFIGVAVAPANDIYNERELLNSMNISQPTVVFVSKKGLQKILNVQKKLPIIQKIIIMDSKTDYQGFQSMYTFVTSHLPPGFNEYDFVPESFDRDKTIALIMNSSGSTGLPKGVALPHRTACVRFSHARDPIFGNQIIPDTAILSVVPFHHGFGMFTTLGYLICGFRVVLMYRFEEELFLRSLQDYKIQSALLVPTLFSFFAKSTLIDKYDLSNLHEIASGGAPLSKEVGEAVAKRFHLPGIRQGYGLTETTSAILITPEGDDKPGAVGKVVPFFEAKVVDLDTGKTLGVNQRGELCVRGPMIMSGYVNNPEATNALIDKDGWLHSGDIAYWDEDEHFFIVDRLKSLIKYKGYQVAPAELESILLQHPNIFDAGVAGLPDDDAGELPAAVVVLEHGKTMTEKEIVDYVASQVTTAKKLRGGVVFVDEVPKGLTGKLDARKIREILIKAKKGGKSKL
Assay: qHTS assay to identify small molecule inhibitors of firefly luciferase (AID 1224835); further: nearly all actives have a fitted effect of over 25% in size
Details: purified P. pyralis luciferase, luminescence inhibition; series mostly up to 115 µM
Results filed as inconclusive are left out. Active and inactive are the calls of the source. Calls follow the shape of the dose curve; as a rule, active = well fitted inhibition curve with a large enough effect in the repeat runs; inconclusive = weak or mixed curves; inactive = flat fitted curve, though single readings scatter.
Answer with one of the outcomes given here: 1 for active, 0 for inactive

Q: # lookup: test call for `Cc1cc(S(=O)(=O)O)ccc1N=Nc1c(O)ccc2ccccc12`
A: 1

Q: # lookup: test call for `O=C(O)Cc1ccc(-c2ccccc2)cc1`
A: 0

Q: # lookup: test call for `CCCCC/C(=C\c1ccccc1)CO`
A: 0

Continuing:
Q: # lookup: test call for `CCCCCCOC(=O)C(C)C`
A: 0

Q: # lookup: test call for `O=C(O)c1ccc(CO)o1`
A: 0

Q: # lookup: test call for `CC(C)(CCl)c1ccccc1`
A: 0

Q: # lookup: test call for `CNC(=S)NC`
A: 0

---

Test: qHTS assay to identify small molecule agonists of the estrogen receptor beta (ER-beta) signaling pathway - cell viability counter screen (AID 1259380); further: nearly all actives have a fitted effect of over 30% in size
Settings: ER-beta-bla HEK293T viability, CellTiter-Glo luminescence, 16 h; series mostly up to 92.4 µM
Results filed as inconclusive are left out. The source made the active and inactive calls. Calls come from the whole dose curve; as a rule, active = well fitted cell-killing curve with a large enough effect in the repeat runs; inconclusive = weak or mixed curves, or effect the other way; inactive = flat fitted curve, though single readings scatter.
Answer with one of the outcomes given here: active, inactive

Q: # lookup: test call for `CC(=O)Nc1ccc(N)cc1`
A: inactive

---

Experiment: qHTS RealTime-Glo MT Cell Viability Assay in HEK293 cells - 16 hour (AID 1224872); further: top concentration of the series differs between compounds; on the % scale 0 is the no-effect control and ±100 the full control effect; nearly all actives have a fitted effect of over 50% in size
Conditions: RealTime-Glo luminescence; series mostly up to 76.8 µM
Records with an inconclusive call do not appear. Active and inactive are the calls of the source. The call rests on the fitted dose curve; in most records, active means well fitted cell-killing curve with a large enough effect in the repeat runs; inconclusive means weak or mixed curves, or effect the other way; inactive means flat fitted curve, though single readings scatter.
assay.readout: activity change, negative = cytotoxicity

Q: Find the measured activity change, negative = cytotoxicity of `C=CCCCCCCCCCCCCCCCC` and report it.
A: -3.07% [at 6.97 µM] (inactive)

Q: Find the measured activity change, negative = cytotoxicity of CC1CN(c2cc3c(cc2F)c(=O)c(C(=O)O)cn3-c2ccc(F)cc2F)CCN1 (stereo not given) and report it.
A: 6.7% [at 6.97 µM] (inactive)

Q: Find the measured activity change, negative = cytotoxicity of `CCCCCCCCCCCCCCCCBr` and report it.
A: 6.53% [at 15.8 µM] (inactive)

Q: Find the measured activity change, negative = cytotoxicity of `CCCC(=O)O[C@]1(C(=O)COC(=O)CC)CC[C@H]2[C@@H]3CCC4=CC(=O)CC[C@]4(C)[C@H]3[C@@H](O)C[C@@]21C` and report it.
A: 5.42% [at 15.8 µM] (inactive)

Note: attention shifts to another entry.
Q: Find the measured activity change, negative = cytotoxicity of `CN1CCN(c2c(F)cc3c(=O)c(C(=O)O)cn4c3c2OCN4C)CC1` and report it.
A: 1.07% [at 15.8 µM] (inactive)

---

Test: qHTS assay to identify small molecule agonists of the TGF-beta/Smad signaling pathway - cell viability counter screen (AID 1346829); further: top concentration of the series differs between compounds; on the % scale 0 is the no-effect control and ±100 the full control effect; nearly all actives have a fitted effect of over 45% in size
Conditions: SBE-bla HEK293T viability, CellTiter-Glo luminescence, 5 h; series mostly up to 76.8 µM
Inconclusive results are not listed. Calls of active or inactive are those of the source. Calls come from the whole dose curve; as a rule, active = well fitted cell-killing curve with a large enough effect in the repeat runs; inconclusive = weak or mixed curves, or effect the other way; inactive = flat fitted curve, though single readings scatter.
assay.readout: activity change, negative = cytotoxicity

Use these answered entries as a reference point.
Q: Find the measured activity change, negative = cytotoxicity of CC1C2CC(CC2C2CCCC(O)C2)C1(C)C (configuration not stated) and report it.
A: inactive

Q: Find the measured activity change, negative = cytotoxicity of `COC(=O)Nc1nc2ccc(C(=O)c3cccs3)cc2[nH]1` and report it.
A: inactive

Q: Find the measured activity change, negative = cytotoxicity of CO/N=C1\CN(c2nc3c(cc2F)c(=O)c(C(=O)O)cn3C2CC2)CC1CN (configuration not stated) and report it.
A: inactive

Q: Find the measured activity change, negative = cytotoxicity of C=CC(C)(O)CCCC(C)CCCC(C)CCCC(C)C (configuration not stated) and report it.
A: inactive

Q: Find the measured activity change, negative = cytotoxicity of `CCCCCCCCCCCCCCC[C@H](O)[C@@H](N)CO` and report it.
A: inactive

Continuing:
Q: Find the measured activity change, negative = cytotoxicity of `CC[C@H](NC(=O)c1cc(F)ccc1NS(=O)(=O)c1cccc2cccnc12)c1ccccc1` and report it.
A: inactive

Q: Find the measured activity change, negative = cytotoxicity of `Cc1ccnc2ccccc12` and report it.
A: inactive
